- Test system: RAW264.7
- ASSAY REMARKS: Cytotoxicity against mouse RAW264.7 cells assessed as cell viability at 20 uM after 24 hrs by MTS assay
- Assay type: cell-based
- EXPERIMENTAL SETUP: raw264.7, 24 h
VALUE KIND: Activity

Guide cases for Activity, answers given:
COc1c(/C=C/C(=O)c2ccc(O)cc2O)ccc(O)c1O :: Non-toxic
C=C(C)C(C)c1cc(C(=O)/C=C/c2ccc(O)c(O)c2OC)ccc1O (stereo unspecified) :: Toxic
COc1c(/C=C/C(=O)c2ccc(O)c(O)c2)ccc(O)c1O :: Non-toxic
COc1c(/C=C/C(=O)c2ccc(O)c(CC=C(C)C)c2)ccc(O)c1O :: Toxic
COc1c(/C=C/C(=O)c2ccc(O)cc2)ccc(O)c1O :: Non-toxic

Please fill in: Activity reported for C=CC(C)(C)c1cc(C(=O)/C=C/c2ccc(O)c(O)c2OC)ccc1O = Toxic

---

- System: RAW264.7
- ASSAY REMARKS: Antiinflammatory activity in mouse RAW264.7 cells assessed as inhibition of LPS-stimulated nitric oxide production at 2 uM after 18 hrs by Griess assay relative to control
- Format: functional
- EXPERIMENTAL SETUP: RAW264.7, 18 h
Label rule, in plain words: inhibition at 2 µM of 60% and up is class 1, under 60% is class 0.

C=CC(C)(C)c1cc(C(=O)/C=C/c2ccc(O)c(O)c2OC)ccc1O :: class 1

Identify whether the reported inhibition at 2 µM of the following molecule is 60% or greater: COc1c(/C=C/C(=O)c2ccc(O)cc2)ccc(O)c1O class 0

Could you please find out whether C=C(C)C(C)c1cc(C(=O)/C=C/c2ccc(O)c(O)c2OC)ccc1O (stereo unspecified) has inhibition at 2 µM that meets 60% or exceeds it? class 0

Is inhibition at 2 µM for COc1c(/C=C/C(=O)c2ccc(O)c(O)c2)ccc(O)c1O at or above 60%? class 0

// inclusive: inhibition at 2 µM at least 60%? input: COc1c(/C=C/C(=O)c2ccc(O)cc2O)ccc(O)c1O class 1

Determine whether measured inhibition at 2 µM meets or exceeds 60% for COc1c(/C=C/C(=O)c2ccc(O)c(CC=C(C)C)c2)ccc(O)c1O class 0
